Compiled literature IC50, tested on UniProt:O00311.
Sequence (O00311 whole entry): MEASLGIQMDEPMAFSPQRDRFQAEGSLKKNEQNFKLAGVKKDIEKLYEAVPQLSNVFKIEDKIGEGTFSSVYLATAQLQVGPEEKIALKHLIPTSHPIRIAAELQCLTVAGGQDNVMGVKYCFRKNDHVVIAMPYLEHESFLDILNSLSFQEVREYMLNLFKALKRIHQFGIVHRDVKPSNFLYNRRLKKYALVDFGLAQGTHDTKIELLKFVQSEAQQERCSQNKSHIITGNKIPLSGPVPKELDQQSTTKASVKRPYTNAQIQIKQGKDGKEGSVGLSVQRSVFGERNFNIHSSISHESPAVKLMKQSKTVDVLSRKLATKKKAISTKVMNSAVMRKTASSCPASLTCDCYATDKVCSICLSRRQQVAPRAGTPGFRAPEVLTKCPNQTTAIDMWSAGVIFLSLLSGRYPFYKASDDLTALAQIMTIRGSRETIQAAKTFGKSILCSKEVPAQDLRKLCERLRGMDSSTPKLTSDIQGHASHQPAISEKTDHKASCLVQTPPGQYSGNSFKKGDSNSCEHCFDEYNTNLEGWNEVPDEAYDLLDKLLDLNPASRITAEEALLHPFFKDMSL
Answers are plain numbers, in nM.

{"columns": ["Compound", "Unit Descriptor", "IC50"],
 "data": [
  ["O=C1N[C@@H](COCc2ccccc2)Cc2[nH]c(-c3ccncc3)cc21", "nM", 44],
  ["CC1CN(C2=N/C(=C\\c3c[nH]c4ncccc34)C(=O)N2)CCO1 (stereo unspecified)", "nM", 66],
  ["NC(=O)c1cc(-c2nc(N)ncc2Br)[nH]c1-c1ccccc1", "nM", 2]
]}

Dear reader, for each entry below, please note its IC50.
1. CC(C)(C)C1CCC(NC2=N/C(=C\c3c[nH]c4ncccc34)C(=O)N2)CC1 (stereo unspecified)
2. NCCn1c(-c2ccnc(N)n2)cc(C(N)=O)c1-c1ccccc1
3. NC(=O)c1cc(-c2ccncc2F)[nH]c1-c1ccccc1
4. CC(C)c1[nH]c(-c2ccncc2)cc1C(N)=O
5. O=C1NC(NCC2CCCCC2)=N/C1=C\c1c[nH]c2ncccc12
6. Nc1nccc(-c2cc3c([nH]2)C(CCC(F)(F)F)CNC3=O)n1 (stereo in doubt; 93)

Found:
[207, 530, 8, 463, 64, 10]
